The next entries give measured pIC50 for UniProt:Q92918.
Sequence (Q92918 whole entry): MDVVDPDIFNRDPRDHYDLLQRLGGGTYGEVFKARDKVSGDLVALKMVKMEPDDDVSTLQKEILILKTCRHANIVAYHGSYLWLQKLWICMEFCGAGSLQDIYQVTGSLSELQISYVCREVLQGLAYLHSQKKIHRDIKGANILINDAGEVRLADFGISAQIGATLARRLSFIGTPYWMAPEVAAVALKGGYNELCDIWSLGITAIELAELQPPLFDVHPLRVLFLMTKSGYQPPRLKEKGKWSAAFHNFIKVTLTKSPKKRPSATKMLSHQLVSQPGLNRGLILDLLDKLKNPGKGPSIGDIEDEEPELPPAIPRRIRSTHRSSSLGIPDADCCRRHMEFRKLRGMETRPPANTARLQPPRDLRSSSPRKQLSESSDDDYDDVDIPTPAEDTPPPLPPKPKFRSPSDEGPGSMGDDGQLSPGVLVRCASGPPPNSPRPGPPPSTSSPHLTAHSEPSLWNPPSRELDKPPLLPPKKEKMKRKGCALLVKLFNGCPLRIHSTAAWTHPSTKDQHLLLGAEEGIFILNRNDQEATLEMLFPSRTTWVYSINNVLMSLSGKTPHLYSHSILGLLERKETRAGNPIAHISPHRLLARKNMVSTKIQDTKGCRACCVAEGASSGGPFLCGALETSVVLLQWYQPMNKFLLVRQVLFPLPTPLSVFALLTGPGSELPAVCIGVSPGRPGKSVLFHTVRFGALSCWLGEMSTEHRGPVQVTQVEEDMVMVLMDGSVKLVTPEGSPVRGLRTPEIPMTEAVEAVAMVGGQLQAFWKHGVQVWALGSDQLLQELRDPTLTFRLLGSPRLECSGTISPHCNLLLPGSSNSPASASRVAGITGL
pIC50: −log10 of the molar value. Structures can show the parent of a compound that is named as a salt.
observable: pIC50

INSERT INTO assay_data (molecule, testsystem, result) VALUES
  ('CO[C@@]1(CN(C)C)CCCN(c2ccc(Nc3ccc(-c4cnc5cc(F)ccn45)c4c3C(=O)NC4)nc2)C1', 'UniProt:Q92918', '> 7.00'),
  ('O=C1NCc2c(-c3cnc4cnccn34)ccc(Nc3ccc(N4CCC(O)CC4)cn3)c21', 'UniProt:Q92918', '> 7.00'),
  ('Cn1cnc2c(-c3ccc(Nc4ccc(N5CCC(O)CC5)cn4)c4c3CNC4=O)cccc21', 'UniProt:Q92918', '> 7.00'),
  ('O=C1NCc2c(-c3cnc4cc(F)ccn34)ccc(Nc3ccc(S(=O)(=O)CC4COC4)cn3)c21', 'UniProt:Q92918', '6.00 to 7.00'),
  ('O=C1NCc2c(-c3cnc4ncccn34)ccc(Nc3ccc(N4CCNCC4)cn3)c21', 'UniProt:Q92918', '> 7.00'),
  ('COCCN(C)c1ccc(Nc2ccc(-c3cnc4cc(F)ccn34)c3c2C(=O)NC3)nc1', 'UniProt:Q92918', '> 7.00'),
  ('CN1CCN(c2ccc(Nc3cnc(-c4c[nH]c5cc(OCc6ccccc6)ccc45)c4c3C(=O)NC4)nc2)CC1', 'UniProt:Q92918', '< 6.00'),
  ('O=C1NCc2c(-c3cnc4cc(F)ccn34)ccc(Nc3ccc([C@@H]4CCOC4)c(CN4CC[C@@H](F)C4)n3)c21 (stereo in doubt)', 'UniProt:Q92918', '> 7.00'),
  ('Cn1ccc2c(-c3ncc(Nc4cccc(N5CC[C@@H]6CNC[C@@H]65)n4)c4c3CNC4=O)ccnc21', 'UniProt:Q92918', '6.00 to 7.00'),
  ('CC(C)(O)[C@H]1CCCN(c2ccc(Nc3cnc(-c4cnn5c4CCCC5)c4c3C(=O)NC4)nc2)C1', 'UniProt:Q92918', '> 7.00'),
  ('C[C@@H](O)[C@@H]1CN(c2ccc(Nc3ccc(-c4cnc5cc(F)ccn45)c4c3C(=O)NC4)nc2)CCO1', 'UniProt:Q92918', '> 7.00'),
  ('COC[C@H]1CN(c2ccc(Nc3cnc(-c4ccnc5c4ccn5C)c4c3C(=O)NC4)nc2)CC[C@H]1O', 'UniProt:Q92918', '> 7.00'),
  ('C[C@@H]1COCCN1c1ccc(Nc2ccc(-c3cnc4cc(F)ccn34)c3c2C(=O)NC3)nc1CN(C)C [I-528, Formic acid salt]', 'UniProt:Q92918', '> 7.00'),
  ('CN1CCN(c2ccc(Nc3ccc(-c4ccn5ccnc5c4)c4c3C(=O)NC4)nc2)CC1', 'UniProt:Q92918', '6.00 to 7.00'),
  ('O=C1NCc2c(-c3cnc4cc(F)ccn34)ccc(Nc3ccc([C@H]4CCOC4)c(CN4CC(F)C4)n3)c21', 'UniProt:Q92918', '> 7.00');
